The origin of these recorded values is the supplement of paper PMC6897291.

System: U-2932
Assay: growth inhibition by drug plus 177Lu-lilotomab satetraxetan (1 - RLU/untreated control) (fraction); higher = stronger inhibition
Details: 1000 nM; time (day): 5; 177Lu-lilotomab satetraxetan 1 ug/ml
Experimental Endpoint: growth inhibition by drug plus 177Lu-lilotomab satetraxetan

INSERT INTO measurements (smiles_data, quantitative_result) VALUES
  ('CC(C)(C)c1[nH]cnc1/C=c1\[nH]c(=O)/c(=C/c2ccccc2)[nH]c1=O', 0.98),
  ('CN1CCN(c2ccc3nc(-c4c(N)c5c(F)cccc5[nH]c4=O)[nH]c3c2)CC1', 0.0265),
  ('CCOc1cc(C(=O)Nc2ccc(Cl)c(-c3nc4ccccc4[nH]3)c2)cc(OCC)c1OCC', 0.28),
  ('Nc1cc(C(F)(F)F)c(-c2cc(N3CCOCC3)nc(N3CCOCC3)n2)cn1', 0.403);

====

# growth inhibition by drug alone annotations
Test system: RIVA
Assay: growth inhibition by drug alone (1 - RLU/untreated control) (fraction); higher = stronger inhibition
Conditions: 10 nM; time (day): 4; 177Lu-lilotomab satetraxetan 0 ug/ml
Experimental Endpoint: growth inhibition by drug alone

INSERT INTO measurements (compound, result) VALUES
  ('Cc1ccc(S(=O)(=O)C=CC#N)cc1', -0.00988),
  ('N#CC[C@H](C1CCCC1)n1cc(-c2ncnc3[nH]ccc23)cn1', -0.0212),
  ('CC(=O)Nc1nc(C)c(-c2ccc(Cl)c(S(=O)(=O)NCCO)c2)s1', 0.026),
  ('O=C(O[C@@H]1Cc2c(O)cc(O)cc2O[C@@H]1c1cc(O)c(O)c(O)c1)c1cc(O)c(O)c(O)c1 [(-)-Epigallocatechin gallate]', -0.156),
  ('O=C1NC(=O)/C(=C\c2cccc(C(F)(F)F)c2)S1', -0.269);

====

Documented growth inhibition by drug plus 177Lu-lilotomab satetraxetan across a set of molecules
Test system: RIVA
Test: growth inhibition by drug plus 177Lu-lilotomab satetraxetan (1 - RLU/untreated control) (fraction); higher = stronger inhibition
Details: 10 nM; time (day): 6; 177Lu-lilotomab satetraxetan 0.5 ug/ml
Where a name gives a salt, the structure may show the parent alone.
Experimental Endpoint: growth inhibition by drug plus 177Lu-lilotomab satetraxetan

INSERT INTO results (molecule, quantitative_result) VALUES
  ('COc1ccccc1OCC(O)CN1CCN(CC(=O)Nc2c(C)cccc2C)CC1 (centres undefined) [Ranolazine (Ranexa)]', 0.551),
  ('C=CCn1c(=O)c2cnc(Nc3ccc(N4CCN(C)CC4)cc3)nc2n1-c1cccc(C(C)(C)O)n1', 0.552),
  ('CO[C@@H](C(=O)N1Cc2[nH]nc(NC(=O)c3ccc(N4CCN(C)CC4)cc3)c2C1)c1ccccc1', 0.604),
  ('CCN[C@H]1C[C@H](C)S(=O)(=O)c2sc(S(N)(=O)=O)cc21 [Dorzolamide HCL]', 0.489);

====

System: RIVA
Assay: growth inhibition by drug alone (1 - RLU/untreated control) (fraction); higher = stronger inhibition
Conditions: 100 nM; time (day): 6; 177Lu-lilotomab satetraxetan 0 ug/ml
Bucketed by reported growth inhibition by drug alone, buckets being group A: < -0.4; group B: ≥ -0.4 and < -0.2; group C: ≥ -0.2

INSERT INTO results (molecule, tgt, class_assignment) VALUES
  ('NC(=O)Nc1sc(-c2ccc(F)cc2)cc1C(N)=O', 'RIVA', 'group A'),
  ('C[C@@H]1CN(CC(=O)Nc2ccc3c(c2)Cc2cccc(-c4cc(=O)cc(N5CCOCC5)o4)c2S3)C[C@H](C)O1', 'RIVA', 'group A'),
  ('CC(C)n1c(/C=C/C(O)CC(O)CC(=O)O)c(-c2ccc(F)cc2)c2ccccc21 (stereo unspecified) [Fluvastatin sodium (Lescol)]', 'RIVA', 'group A'),
  ('COc1cc2c(cc1OC)CN(CCc1ccc(NC(=O)c3cccc4c(=O)c5cccc(OC)c5[nH]c34)cc1)CC2 [Elacridar]', 'RIVA', 'group A'),
  ('N#CC(c1ccnc(NCCc2cccnc2)n1)c1nc2ccccc2s1 (stereo unspecified) [JNK Inhibitor V]', 'RIVA', 'group A'),
  ('CCn1c(-c2nonc2N)nc2c(C#CC(C)(C)O)ncc(OC[C@H]3CCCNC3)c21', 'RIVA', 'group B'),
  ('CC(=O)O[C@@]12CO[C@@H]1C[C@H](O)[C@@]1(C)C(=O)[C@H](O)C3=C(C)[C@@H](OC(=O)[C@H](O)[C@@H](NC(=O)OC(C)(C)C)c4ccccc4)C[C@@](O)([C@@H](OC(=O)c4ccccc4)[C@H]21)C3(C)C [Docetaxel (Taxotere)]', 'RIVA', 'group C'),
  ('COc1nc(C)cnc1NS(=O)(=O)c1cccnc1-c1ccc(-c2nnco2)cc1 [Zibotentan (ZD4054)]', 'RIVA', 'group C'),
  ('COc1cc2c(cc1O)CC[C@@H]1[C@@H]2CC[C@]2(C)[C@@H](O)CC[C@@H]12 [2-Methoxyestradiol]', 'RIVA', 'group A'),
  ('Cn1cc(-c2ccc3nnc(C(F)(F)c4ccc5ncccc5c4)n3n2)cn1', 'RIVA', 'group B'),
  ('CCOc1ccn(-c2ccc(F)cc2)c(=O)c1C(=O)Nc1ccc(Oc2ccnc(N)c2Cl)c(F)c1', 'RIVA', 'group C'),
  ('O=C(O)C1(C(=O)O)CCC1.[NH2-].[NH2-].[Pt+2] [Carboplatin]', 'RIVA', 'group B'),
  ('CC(C=CC(=O)NO)=CC(C)C(=O)c1ccc(N(C)C)cc1 (stereo unspecified) [Trichostatin A (TSA)]', 'RIVA', 'group C'),
  ('Nc1ccn([C@@H]2O[C@H](CO)[C@@H](O)[C@@H]2O)c(=O)n1 [Cytarabine]', 'RIVA', 'group C'),
  ('CC#C[C@]1(O)CC[C@H]2[C@@H]3CCC4=CC(=O)CCC4=C3[C@@H](c3ccc(N(C)C)cc3)C[C@@]21C [Mifepristone (Mifeprex)]', 'RIVA', 'group B');
